# system.under.test: EP2 (Homo sapiens)
# Sequence (P43116 whole entry): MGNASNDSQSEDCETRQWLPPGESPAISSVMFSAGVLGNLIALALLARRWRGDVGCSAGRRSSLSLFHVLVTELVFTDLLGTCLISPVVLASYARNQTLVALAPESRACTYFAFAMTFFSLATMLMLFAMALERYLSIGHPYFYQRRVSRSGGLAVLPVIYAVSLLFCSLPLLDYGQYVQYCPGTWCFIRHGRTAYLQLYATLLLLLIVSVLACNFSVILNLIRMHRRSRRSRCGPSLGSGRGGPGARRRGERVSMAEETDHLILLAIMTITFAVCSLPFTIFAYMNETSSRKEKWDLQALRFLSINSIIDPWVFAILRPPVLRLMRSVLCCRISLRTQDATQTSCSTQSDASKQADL
# method.summary: EP2 cAMP assay
# measurement.context: unit inferred
recorded.endpoint: EC50 (nM)

* CCCC(O)c1ccc(N2C(=O)CC[C@@H]2COCc2ccc(C(=O)O)s2)cc1 (mixture of isomers) [Example 14] | 27

[1] CCCCC[C@@H](O)c1ccc(N2C(=O)CC[C@@H]2/C=C/Cc2ccc(C(=O)O)s2)cc1 (racemic) [Example 16]
[2] CCC(O)c1ccc(N2C(=O)CC[C@@H]2COCc2ccc(C(=O)O)s2)cc1 (mixture of isomers) [Example 15]
Which shows the larger EC50 value: 1 or 2 ? Answer with the label corresponding to your selection. 2
